Source listed as PubChem BioAssay (NCI).

- experiment summary: NCI Yeast Anticancer Drug Screen. Data for the mlh1 rad18 strain (AID 175)
- protocol conditions: S. cerevisiae mlh1 rad18 strain growth inhibition; at 5.0 µM (retest, dose inferred, filed as 0.5)
This is part of a sample that, as a whole, favours compounds with a hit. Of some 79,000 tested, about 15% had one in any assay. Activity calls are given as the source filed them. No stated cut-off is given here; in the data, active means growth inhibition above about 70%; inactive means the rest.
Entry note: the call must match one of active, inactive

Study these solved cases before continuing.
# chemical smiles, class
measured = [
    ("CCN(CC)CCNc1nc(N)c2nc(-c3ccccc3)c(-c3ccccc3)nc2n1", "inactive"),
    ("CC(C)(C)CC(C)(C)c1ccc(OCCSC(=N)N)cc1", "active"),
    ("CNC(=N)c1ccc(NC(=N)c2ccc(NC(=O)c3ccc(C(=O)Nc4ccc(C(=N)Nc5ccc(C(=N)NC)cc5)cc4)cc3)cc2)cc1", "active"),
    ("COc1ccc2c(c1)[n+]([O-])c(-c1ccccc1)c(N)[n+]2[O-]", "active"),
]

Let us examine a further case.
Task item: Tell me the assay call for O=C(Nc1cccc(Br)c1)Oc1ccc(Cl)c2cccnc12 please.
Reply: inactive
